As shown below, each of these molecules has a reported Binding Community/Bin value.
- target.under.test: GST-TMEM106B (truncated, comprising amino acids 122-210 of SEQ ID NO:1) (Homo sapiens, UniProt Q9NUM4)
- Sequence (Q9NUM4 122-210): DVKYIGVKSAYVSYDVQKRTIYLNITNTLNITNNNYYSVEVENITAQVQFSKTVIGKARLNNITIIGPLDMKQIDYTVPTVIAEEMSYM
- procedure.details: Pre-mix epitope binning of anti-TMEM106B antibodies (Carterra / Lake Pharma)
- Assay type: binding
- setup.conditions: epitope bin number; pre-mix binning on truncated GST-TMEM106B
- Protocol: Monoclonal anti-TMEM106B antibodies were immobilized to a CMD 50M chip (Xantec # SPMXCMD5OM lot# SCCMD50M0416). The running buffer was HBS-EP+ with 1 mg/mL BSA. The GST-TMEM106B (truncated, comprising amino acids 122-210 of SEQ ID NO:1) antigen was prepared at a final concentration of 55 nM (corresponding to 2 μg/mL) and mixed with the competing analyte anti-TMEM106B antibodies at a final concentration of 333 nM (corresponding to 50 μg/mL) or compared to a buffer control. […]

- molecule: "TM-15: anti-TMEM106B monoclonal antibody; CDR-H1-3 SEQ ID NO: 15, 49, 92; CDR-L1-3 SEQ ID NO: 133, 171, 197 (antibody, V domains shown) VH: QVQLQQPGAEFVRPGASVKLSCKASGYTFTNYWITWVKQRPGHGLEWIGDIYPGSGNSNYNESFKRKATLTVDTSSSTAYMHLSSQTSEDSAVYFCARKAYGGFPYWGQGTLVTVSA VL: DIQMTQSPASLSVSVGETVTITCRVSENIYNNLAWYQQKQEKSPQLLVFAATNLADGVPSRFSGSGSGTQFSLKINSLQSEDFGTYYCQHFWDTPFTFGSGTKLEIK"
  Binding Community/Bin: 3
- molecule: "TM-25: anti-TMEM106B monoclonal antibody; CDR-H1-3 SEQ ID NO: 10, 57, 100; CDR-L1-3 SEQ ID NO: 137, 168, 205 (antibody, V domains shown) VH: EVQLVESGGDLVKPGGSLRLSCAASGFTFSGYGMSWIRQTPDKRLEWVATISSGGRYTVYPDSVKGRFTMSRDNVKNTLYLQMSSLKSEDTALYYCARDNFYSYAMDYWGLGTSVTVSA VL: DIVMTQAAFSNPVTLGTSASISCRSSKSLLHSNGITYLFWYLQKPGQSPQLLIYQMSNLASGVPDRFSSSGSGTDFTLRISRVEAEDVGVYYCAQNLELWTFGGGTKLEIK"
  Binding Community/Bin: 2
- molecule: "TM-12: anti-TMEM106B monoclonal antibody; CDR-H1-3 SEQ ID NO: 13, 46, 89; CDR-L1-3 SEQ ID NO: 130, 169, 194 (antibody, V domains shown) VH: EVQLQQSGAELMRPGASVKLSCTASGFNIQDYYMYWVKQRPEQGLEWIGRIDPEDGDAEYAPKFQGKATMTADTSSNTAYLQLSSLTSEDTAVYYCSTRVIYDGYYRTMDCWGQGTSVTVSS VL: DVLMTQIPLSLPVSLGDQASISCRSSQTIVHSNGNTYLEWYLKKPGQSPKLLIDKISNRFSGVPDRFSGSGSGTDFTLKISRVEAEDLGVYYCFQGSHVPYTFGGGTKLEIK"
  Binding Community/Bin: 2
- molecule: "TM-78: anti-TMEM106B monoclonal antibody; VH SEQ ID NO: 483, VL SEQ ID NO: 518 (antibody, V domains shown, Variable Heavy Chain -- TM-78; Variable Light Chain -- TM-78) VH: QVQLQQPGAELVKPGASVKLSCKASGYTFTNHWMHWVRQRPGQGLEWIGNIDPSDSDTHYNHKFKDKATLIVDKSSSTAYLQLSSLTSEDSAVFYCARSRGGYYDYGEAMDYWGQGTSVTVSS VL: DIVMTQATPSIPVTPGESVSISCRSSKSLLHVNGNTYLFWFLQRPGQSPQLLIYRMSNLASGVPDRFSGSGSGTAFTLRISRVEAEDVGVYYCMQHLEYPFTFGSGTKLEIK"
  Binding Community/Bin: 4
- molecule: "TM-17: anti-TMEM106B monoclonal antibody; CDR-H1-3 SEQ ID NO: 17, 51, 94; CDR-L1-3 SEQ ID NO: 132, 172, 196 (antibody, V domains shown) VH: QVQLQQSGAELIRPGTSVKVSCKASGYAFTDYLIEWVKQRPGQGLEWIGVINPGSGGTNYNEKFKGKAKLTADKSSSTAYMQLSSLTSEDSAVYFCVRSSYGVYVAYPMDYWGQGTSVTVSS VL: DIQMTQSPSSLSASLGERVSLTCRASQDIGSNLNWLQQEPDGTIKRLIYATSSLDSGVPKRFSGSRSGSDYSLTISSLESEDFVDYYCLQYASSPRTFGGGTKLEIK"
  Binding Community/Bin: 1
- molecule: "TM-9: anti-TMEM106B monoclonal antibody; CDR-H1-3 SEQ ID NO: 10, 43, 86; CDR-L1-3 SEQ ID NO: 122, 168, 186 (antibody, V domains shown) VH: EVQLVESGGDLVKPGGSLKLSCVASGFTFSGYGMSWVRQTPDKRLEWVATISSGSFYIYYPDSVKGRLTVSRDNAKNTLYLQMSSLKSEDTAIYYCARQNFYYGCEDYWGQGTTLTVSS VL: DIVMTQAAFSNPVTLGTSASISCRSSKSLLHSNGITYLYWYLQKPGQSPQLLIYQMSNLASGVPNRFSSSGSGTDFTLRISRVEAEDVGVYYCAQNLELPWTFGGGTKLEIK"
  Binding Community/Bin: 2
- molecule: "TM-30: anti-TMEM106B monoclonal antibody; CDR-H1-3 SEQ ID NO: 21, 61, 104; CDR-L1-3 SEQ ID NO: 144, 160, 208 (antibody, V domains shown) VH: QVQLQQSGPELVKPGASVKLSCKASDNTFTNYDVNWVRQRPGQGLEWIGWIYPRDGTTIYNEKFKGRATLTVDTSSSTAYMELHSLTSEDSAVFFCARTLPQAMDYWGQGTSVTVSS VL: DVLMTQSPLSLPVSLGDQVSISCRSSQTIVHRNGNTYLEWYLQKPGQSPKLLIYKVSNRFSGVPDRFSGSGSGTDFTLKISRVEAEDLGVYYCFQGSHLPWTFGGGTKLEIK"
  Binding Community/Bin: 4
- molecule: "TM-19: anti-TMEM106B monoclonal antibody; CDR-H1-3 SEQ ID NO: 13, 53, 96; CDR-L1-3 SEQ ID NO: 136, 175, 200 (antibody, V domains shown) VH: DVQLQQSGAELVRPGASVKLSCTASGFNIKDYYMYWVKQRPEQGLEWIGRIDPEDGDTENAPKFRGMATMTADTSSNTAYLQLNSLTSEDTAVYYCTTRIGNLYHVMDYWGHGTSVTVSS VL: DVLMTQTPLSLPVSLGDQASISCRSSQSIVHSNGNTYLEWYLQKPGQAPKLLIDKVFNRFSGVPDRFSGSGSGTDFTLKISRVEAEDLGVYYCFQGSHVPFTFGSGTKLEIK"
  Binding Community/Bin: 2

src = patent US20240166738A1
